Where do the numbers come from? From PubChem BioAssay.

- Assay protocol: basal S. cerevisiae growth modulation, no modifier, primary screen, OD600, strain BY4716, 24 h, basal condition (AID 1173)
- Measurement context: OD600, 24 h, called active from +8 up or from −8 down
Active and inactive are the calls of the source.
Hi there, use one of these labels in your reply, thanks! class 1 for active, class 0 for inactive

Recorded test call requested for COC(=O)[C@@]1(Cc2ccc(F)cc2)[C@H]2c3cc(C(=O)N(C)C)n(Cc4ccccc4)c3C[C@H]2CN1C(=O)c1ccccc1
class 0

Also NC(=O)NCC#Cc1ccc2c(c1)[C@]1(C(=O)N2)[C@H](c2ccccc2OCCO)N2[C@H](c3ccccc3)[C@H](c3ccccc3)OC(=O)[C@H]2[C@@H]1C(=O)Nc1nc2ccccc2s1 ?
class 0

Further, for COCCOC(=O)N1C(=O)[C@@]2(c3cc(C#CCNC(N)=O)ccc31)[C@H](C(=O)N1CCN(c3ncccn3)CC1)[C@H]1C(=O)O[C@H](c3ccccc3)[C@H](c3ccccc3)N1[C@@H]2c1ccc(OCCO)cc1 ?
class 0

What about O=C1c2ccccc2[C@](Cc2ccccc2I)(C(=O)NCC(F)(F)F)[C@H](c2ccc(CO)cc2)N1Cc1ccccc1Cl ?
class 0

What do you have for O=C1O[C@H](c2ccccc2)[C@H](c2ccccc2)N2[C@H]1[C@@H](C(=O)N1CCCCCCC1)[C@]1(C(=O)Nc3ccc(C#CC4=CCCCC4)cc31)[C@H]2c1ccc(OCCO)cc1 ?
class 0

Item: COC(=O)[C@@]1(CCS(=O)(=O)c2ccccc2)N=C(c2ccc(OCCCO)cc2)O[C@H]1c1ccccc1CN=[N+]=[N-]
class 0

Param item: COC(=O)[C@@]1(Cc2ccc(F)cc2)[C@H]2c3cc(C(=O)N4CCCC4)n(Cc4ccc(S(C)(=O)=O)cc4)c3C[C@H]2CN1C(=O)c1ccccc1
class 0

How about CC(=O)NCCCC[C@@H]1NC(=O)[C@H]2C[C@@H](C(=O)NCCCCCCNC(=O)CS)[C@@H](c3ccc(O)cc3)N2C1=O ?
class 0

What about Cc1ccc(N2C(=O)c3ccccc3[C@@H](C(=O)NC3CC3)[C@@H]2c2ccc(CO)cc2)nc1 ?
class 0

And then CCCC[C@@H]1C[C@H]1[C@@H](NC(=O)c1ccco1)c1ccccc1C(F)(F)F , what is it?
class 0

Next: COC(=O)[C@@]1(Cc2ccccc2)[C@H]2c3cc(C(=O)N4CCCC4)n(Cc4ccc(S(C)(=O)=O)cc4)c3C[C@H]2CN1C(=O)c1ccccc1
class 0
